Origin of values: the supplement of paper PMC10037445

test system: RAW-Dual; experiment: NF-kB SEAP reporter activity, fold change vs agonist alone; cytotoxicity flag (confluency mask): cytotoxic (confluency <70% of control); higher = enhanced NF-kB activity; conditions: agonist: ODN 1826 (TLR9) 0.5 ug/mL
The full ranking holds about 2,900 compounds; the median of “NF-kB SEAP reporter activity, fold change vs agonist alone” is about 0.99, and the highest 2% start at about 2.6. This is one part of a sample in which the highest values are shown more often than they occur.
Experimental endpoint: NF-kB SEAP reporter activity
Just the number, please, no unit after it.

Solved entries (count: 4):
>  <Compound>
Nc1ccc(-c2ccc3ncc4ccc(=O)n(-c5cccc(C(F)(F)F)c5)c4c3c2)cn1 (library stock concentration (final ~1000-fold dilution): 10 mM)

>  <NF-kB SEAP reporter activity>
2.16

$$$$
>  <Compound>
O=S(=O)(NCCN1CCNCC1)c1ccc(NC2CCCCC2)c(NCc2ccccc2)c1 (library stock concentration (final ~1000-fold dilution): 10 mM)

>  <NF-kB SEAP reporter activity>
1.13

$$$$
>  <Compound>
C=CCNC1=C2CC(C)CC(OC)C(O)C(C)/C=C(\C)C(OC(N)=O)C(OC)/C=C\C=C(/C)C(=O)NC(=CC1=O)C2=O (stereo not given) (library stock concentration (final ~1000-fold dilution): 10 mM)

>  <NF-kB SEAP reporter activity>
0.221

$$$$
>  <Compound>
COc1ccc(-c2ccc3ncc4c(c3c2)n(-c2ccc(N3CCNCC3)c(C(F)(F)F)c2)c(=O)n4C)cn1.O=C(O)/C=C\C(=O)O (library stock concentration (final ~1000-fold dilution): 10 mM)

>  <NF-kB SEAP reporter activity>
0.205

$$$$

Pending compound:
Qu. Request: NF-kB SEAP reporter activity, test system RAW-Dual, entry COC(=O)CC(O)(CCCC(C)(C)O)C(=O)OC1C(OC)=CC23CCCN2CCc2cc4c(cc2C13)OCO4 (stereo not given) (library stock concentration (final ~1000-fold dilution): 10 mM)
Ans. 0.169

* * *

system: RAW-Dual; experiment: NF-kB SEAP reporter activity, fold change vs agonist alone; cytotoxicity flag (confluency mask): cytotoxic (confluency <70% of control); higher = enhanced NF-kB activity; settings: agonist: Pam2CSK4 (TLR2/6) 0.1 ug/mL
The full ranking holds about 2,900 compounds; the median of “NF-kB SEAP reporter activity, fold change vs agonist alone” is about 0.99, and the highest 2% start at about 2.6. The list comes from a sample in which the highest values are over-represented; it also holds close analogues and randomly drawn compounds.
Would you mind labelling by NF-kB SEAP reporter activity? At or over 0.2 is t, under is f.

Completed entries (count: 4):
>  <Compound>
CCCCCCCCCCCCCCCC(=O)NC(CCSC)C(=O)NCC(=O)NC(Cc1ccc(O)cc1)C(=O)NC(CCC(N)=O)C(=O)NC(CCCCN)C(=O)NC(CCCCN)C(=O)NC(CC(C)C)C(=O)NC(CCCNC(=N)N)C(=O)NC(CO)C(=O)NC(CCSC)C(=O)NC(C(=O)NC(CC(=O)O)C(=O)NC(CCCCN)C(=O)NC(Cc1ccc(O)cc1)C(=O)NC(CCCNC(=N)N)C(=O)NC(CC(C)C)C(=O)O)C(C)O (stereo not given) (library stock concentration (final ~1000-fold dilution): 10 mM)

>  <Measured on>
RAW-Dual

>  <Group>
t

$$$$
>  <Compound>
CS(=O)(=O)O.O=C(Nc1cccc(Cl)c1)Nc1ncc(CCNc2ncnc3ccsc23)s1 (library stock concentration (final ~1000-fold dilution): 10 mM)

>  <Measured on>
RAW-Dual

>  <Group>
f

$$$$
>  <Compound>
CCCCc1nc(-c2ccc(OCCCN(CC)CC)cc2)cn1-c1ccc(Oc2ccc(Cl)cc2)cc1 (library stock concentration (final ~1000-fold dilution): 10 mM)

>  <Measured on>
RAW-Dual

>  <Group>
t

$$$$
>  <Compound>
COc1cc2ncnc(Nc3ccc(F)c(Cl)c3)c2cc1NC(=O)/C=C/CN1CCCCC1 (library stock concentration (final ~1000-fold dilution): 10 mM)

>  <Measured on>
RAW-Dual

>  <Group>
f

$$$$

Could you now look at the following compound, please?
Qu. Tell me whether NF-kB SEAP reporter activity is at least 0.2 here: CC(=O)c1ccc2c(c1)c1cc(C(C)=O)ccc1n2CCNC(C)C.Cl (library stock concentration (final ~1000-fold dilution): 10 mM)
Ans. f

* * *

Listed here are compounds together with their documented NF-kB SEAP reporter activity.
test system: RAW-Dual; assay: NF-kB SEAP reporter activity, fold change vs agonist alone; cytotoxicity flag (confluency mask): not cytotoxic; higher = enhanced NF-kB activity; conditions: agonist: ODN 1826 (TLR9) 0.5 ug/mL
Whole data set: some 2,900 compounds, median “NF-kB SEAP reporter activity, fold change vs agonist alone” near 0.99, cut for the highest 2% near 2.6. For the sample, the highest values were picked, then their nearest neighbours and some compounds at random.
Just the number, please, no unit after it.

>  <Compound>
COc1cc(OC)c(/C=C2/C(=O)Nc3ccccc32)c(OC)c1 (library stock concentration (final ~1000-fold dilution): 10 mM)

>  <NF-kB SEAP reporter activity>
2.56

$$$$
>  <Compound>
Cc1cc(C)c2c(c1)C(N(Cc1cc(C(F)(F)F)cc(C(F)(F)F)c1)c1nnn(C)n1)CCCN2CC1CCC(C(=O)O)CC1 (stereo unspecified) (library stock concentration (final ~1000-fold dilution): 10 mM)

>  <NF-kB SEAP reporter activity>
0.635

$$$$
>  <Compound>
Cc1c[nH]c(C=C2C(=O)Nc3ccccc32)c1CCC(=O)O (library stock concentration (final ~1000-fold dilution): 10 mM)

>  <NF-kB SEAP reporter activity>
0.926

$$$$
>  <Compound>
O=C(Nc1ccc(O)c(C(=O)O)c1)c1cccc(NC(=O)c2ccco2)c1 (library stock concentration (final ~1000-fold dilution): 10 mM)

>  <NF-kB SEAP reporter activity>
0.895

$$$$
>  <Compound>
COc1ccc(C(=C2C(=O)Nc3ccccc32)c2ccc(OC)cc2)cc1 (library stock concentration (final ~1000-fold dilution): 10 mM)

>  <NF-kB SEAP reporter activity>
0.585

$$$$

Qu. Any idea what NF-kB SEAP reporter activity was measured for O=c1cc(-c2ccc(O)cc2)oc2c(C3OC(CO)C(O)C(O)C3O)c(O)cc(O)c12 (stereo unspecified) (library stock concentration (final ~1000-fold dilution): 10 mM) ?
Ans. 0.919

* * *

test system: RAW-Dual; experiment: NF-kB SEAP reporter activity, fold change vs agonist alone; cytotoxicity flag (confluency mask): cytotoxic (confluency <70% of control); higher = enhanced NF-kB activity; settings: agonist: Pam2CSK4 (TLR2/6) 0.1 ug/mL
Over roughly 2,900 compounds, “NF-kB SEAP reporter activity, fold change vs agonist alone” has its median near 0.99; the highest 2% begin near 2.6. This excerpt belongs to a sample that is enriched for the highest values.
Would you mind labelling by NF-kB SEAP reporter activity? At or over 0.6 is 1 (yes), under is 0 (no).

Completed entries (count: 5):
>  <Compound>
COc1cc(OC)cc(N(CCNC(C)C)c2ccc3ncc(-c4cnn(C)c4)nc3c2)c1 (library stock concentration (final ~1000-fold dilution): 10 mM)

>  <Group>
1 (yes)

$$$$
>  <Compound>
CC1OC(OC2CCC3(C)C(CCC4(C)C3C=CC35OCC6(CCC(C)(C)CC63)C(O)CC45C)C2(C)CO)C(O)C(OC2OC(CO)C(O)C(O)C2O)C1O (stereo unspecified) (library stock concentration (final ~1000-fold dilution): 10 mM)

>  <Group>
0 (no)

$$$$
>  <Compound>
CN(C)C/C=C/C(=O)Nc1ccc(C(=O)Nc2cccc(Nc3ncc(Cl)c(-c4c[nH]c5ccccc45)n3)c2)cc1.Cl.Cl (library stock concentration (final ~1000-fold dilution): 10 mM)

>  <Group>
0 (no)

$$$$
>  <Compound>
CNCCCC1c2ccccc2C=Cc2ccccc21.Cl (library stock concentration (final ~1000-fold dilution): 10 mM)

>  <Group>
1 (yes)

$$$$
>  <Compound>
C=CC(=O)Nc1cc(Nc2nccc(-c3cn(C)c4ccccc34)n2)c(OC)cc1N(C)CCN(C)C.CS(=O)(=O)O (library stock concentration (final ~1000-fold dilution): 10 mM)

>  <Group>
1 (yes)

$$$$

Qu. Tell me whether NF-kB SEAP reporter activity is at least 0.6 here: Cc1[nH]c2ccccc2c1CCNCc1ccc(/C=C/C(=O)NO)cc1 (library stock concentration (final ~1000-fold dilution): 10 mM)
Ans. 1 (yes)

Qu. Tell me whether NF-kB SEAP reporter activity is at least 0.6 here: Cc1ccc(Oc2ccnc3cc(-c4cnn(C5CCNCC5)c4)ccc23)cc1 (library stock concentration (final ~1000-fold dilution): 10 mM)
Ans. 0 (no)

Qu. Tell me whether NF-kB SEAP reporter activity is at least 0.6 here: O=C(CCCCCN1C(=O)c2cccc3cccc(c23)C1=O)NO (library stock concentration (final ~1000-fold dilution): 10 mM)
Ans. 1 (yes)

Qu. Tell me whether NF-kB SEAP reporter activity is at least 0.6 here: O=C(NC1(c2ccccc2)CC1)c1c(CN2CCC(N3CCCCC3)CC2)c(-c2cccc(C(F)(F)F)c2)nc2cc(Br)ccc12 (library stock concentration (final ~1000-fold dilution): 10 mM)
Ans. 1 (yes)

Qu. Tell me whether NF-kB SEAP reporter activity is at least 0.6 here: Cn1cc(-c2ccc(S(=O)(=O)n3ccc(/C=C/C(=O)Nc4ccccc4N)c3)cc2)cn1 (library stock concentration (final ~1000-fold dilution): 10 mM)
Ans. 1 (yes)

Qu. Tell me whether NF-kB SEAP reporter activity is at least 0.6 here: Nc1ncnc2c1c(I)cn2C1OC(CO)C(O)C1O (stereo unspecified) (library stock concentration (final ~1000-fold dilution): 10 mM)
Ans. 0 (no)
